# Test system: P388 leukemia ip, CD2F1 mice, survival T/C
# run_description: NCI In Vivo Anticancer Drug Screen. Data for tumor model P388 Leukemia (intraperitoneal) in CD2F1 (CDF1) mice
# experimental_setup: endpoint: median survival time; dose: 400.0 mg/kg/injection; schedule: Q01DX001 (ip); vehicle: Klucel (hydroxypropylcellulose) (HPC); higher = longer survival
Inconclusive results and toxic doses are left out.
Measured T/C, listed per entry for reference.
value_kind: T/C

compound=O=CNNc1cccc(Cl)n1 result="98 % of control"
compound=Cc1ccc(OP(=O)(Oc2ccc(C)cc2)Oc2ccc(C)cc2)cc1.Cc1ccc(OP(=O)(Oc2ccc(C)cc2)Oc2ccc(C)cc2)cc1.Cc1ccc(OP(=O)(Oc2ccc(C)cc2)Oc2ccc(C)cc2)cc1.Cc1ccc(OP(=O)(Oc2ccc(C)cc2)Oc2ccc(C)cc2)cc1.[Cr+3].[O-][Cl+3]([O-])([O-])O result="89 % of control"
compound="O=C(OC1(c2ccc3ccccc3c2)OC(=O)c2ccccc21)c1ccccc1C(=O)c1cccc2ccccc12 (stereo not drawn)" result="91 % of control"
compound=c1ccc(CNc2ccnc3c2ccc2ccccc23)cc1 result="100 % of control"
compound=O=c1cc(-c2ccccc2)[nH]c(=S)[nH]1 result="106 % of control"
compound="COc1cc(OC)cc(C2(C(O)C3OC(C)(C)OC3C)SCCCS2)c1 (stereo not drawn)" result="97 % of control"
compound="CC(Br)C(C)(C)OO (stereo not drawn)" result="100 % of control"
compound=CN(C)C(=Nc1ccccc1)OC1=C/C(=C2/C=C(OC(=Nc3ccccc3)N(C)C)N=C2OC(=Nc2ccccc2)N(C)C)C(OC(=Nc2ccccc2)N(C)C)=N1 result="104 % of control"
